Protein target, amino acids: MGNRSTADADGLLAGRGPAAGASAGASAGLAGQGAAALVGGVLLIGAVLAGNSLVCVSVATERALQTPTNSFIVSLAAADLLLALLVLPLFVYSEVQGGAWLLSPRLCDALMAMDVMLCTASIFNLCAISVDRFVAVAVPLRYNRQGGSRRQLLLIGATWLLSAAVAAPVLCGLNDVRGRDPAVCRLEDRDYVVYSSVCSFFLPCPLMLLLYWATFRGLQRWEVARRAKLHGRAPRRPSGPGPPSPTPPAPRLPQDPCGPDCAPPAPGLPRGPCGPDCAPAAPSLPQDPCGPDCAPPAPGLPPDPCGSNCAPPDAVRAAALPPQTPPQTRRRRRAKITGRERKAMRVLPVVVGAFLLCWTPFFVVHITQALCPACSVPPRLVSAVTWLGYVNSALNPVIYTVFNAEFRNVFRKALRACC
Endpoint: Ki

Compound: c1cncc(OC[C@@H]2CN(CCN3CCc4ccccc43)CCO2)c1 [Compound 21s]
Recorded measurement: < 1000 nM
